B1: SPOPL (parent)
chain: AKREETKAMESQRAYRFVQGKDWG

# Variants of: B1
# measurement_notes: protein stability index of a GFP-peptide fusion (GPS, HEK-293T) (PSI 1-6); higher = more stable;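 also: lentivirally expressed fusions sorted by FACS into six bins by GFP to DsRed ratio, PSI derived from sequencing read proportions per bin multiplied by bin number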
# run_parameters: c terminus: a fixed tail appended
metric: protein stability index
Just the number, please.

M9K	3.35

Problem: Could you share which protein stability index value was measured for A1N ?
Result: 3.14

Problem: So what's the measured protein stability index for this one? K7T
Result: 3.53

Problem: Please give the measured protein stability index for this variant: A14K
Result: 3.98

Problem: Suppose we examine the variant G24F ; what protein stability index value has been reported?
Result: 1.81

Problem: What does the data say about its protein stability index? Entry: K21Q
Result: 3.02

Problem: Which protein stability index is listed for K2Y ?
Result: 2.74

Problem: Any idea what its protein stability index is? The variant is S11A
Result: 2.07

Problem: # input variant: A14G ; wanted: its protein stability index
Result: 1.9

Problem: Which protein stability index is listed for A1F ?
Result: 3.61

Problem: Quick check: protein stability index of Y15H ?
Result: 3.98

Problem: Tell me the measured protein stability index of K7D , please.
Result: 3.29

Problem: Which value of protein stability index has been reported for K7S in the records?
Result: 3.23

Problem: What value of measured protein stability index is listed for R13H ?
Result: 3.62

Problem: Would you kindly share the measured protein stability index for E10P ?
Result: 3.18

Problem: Give its protein stability index value. Item: M9A
Result: 3.66

Problem: Any idea what its protein stability index is? The variant is R13S
Result: 3.38

Problem: Name the recorded protein stability index for D22L .
Result: 2.94

Problem: Fill in the blank: the reported protein stability index of E5I is ____.
Result: 2.26

Problem: Name the recorded protein stability index for W23M .
Result: 4.86

Problem: I have this variant here, D22W , and I need its recorded protein stability index.
Result: 2.55

Problem: Would you mind telling me what protein stability index value was observed for A14F ?
Result: 3.49

Problem: Return reported protein stability index; argument: F17T
Result: 4.04

Data provenance is the supplement of paper PMC10567573.
